experimental_target: Receptor-type tyrosine-protein phosphatase F (Homo sapiens)
method_notes: Inhibition of human GST-tagged PTP-LAR D1D2 domain assessed as DiFMUP hydrolysis at 10 uM by fluorometric kinetic-based assay
Activity calls are given as the source filed them. The rule behind the calls is not given here.
value_kind: inhibition

Use these answered entries as a reference point.
| chemical_string | experimental_target | inhibition |
| --- | --- | --- |
| CN(C)c1cccc2c(S(=O)(=O)N(C)CC(=O)N(Cc3ccc(C4CCCCC4)cc3)c3ccc(C(=O)O)c(O)c3)cccc12 | Receptor-type tyrosine-protein phosphatase F (Homo sapiens) | inactive |
| CN(CC(=O)N(Cc1ccc(C2CCCCC2)cc1)c1ccc(C(=O)O)c(O)c1)S(=O)(=O)c1cccc2ccccc12 | Receptor-type tyrosine-protein phosphatase F (Homo sapiens) | inactive |
| Cc1ccc(S(=O)(=O)N(C)CC(=O)N(Cc2ccc(-c3ccc(-c4cccc(C#N)c4)cc3)cc2)c2ccc(C(=O)O)c(O)c2)cc1 | Receptor-type tyrosine-protein phosphatase F (Homo sapiens) | inactive |
| COC(=O)c1cccc(-c2ccc(-c3ccc(CN(C(=O)CN(C)S(=O)(=O)c4ccc(C)cc4)c4ccc(C(=O)O)c(O)c4)cc3)cc2)c1 | Receptor-type tyrosine-protein phosphatase F (Homo sapiens) | inactive |
| Cc1ccc(S(=O)(=O)N(C)CC(=O)N(Cc2ccc(-c3ccc(-c4cccc(C(N)=O)c4)cc3)cc2)c2ccc(C(=O)O)c(O)c2)cc1 | Receptor-type tyrosine-protein phosphatase F (Homo sapiens) | inactive |

For the next question, use this molecule.
Exercise: inhibition lookup needed for `CN(CC(=O)N(Cc1ccc(C2CCCCC2)cc1)c1ccc(C(=O)O)c(O)c1)S(=O)(=O)c1cccc2cccnc12` , thanks.
Key: inactive

====

Sequence of the target: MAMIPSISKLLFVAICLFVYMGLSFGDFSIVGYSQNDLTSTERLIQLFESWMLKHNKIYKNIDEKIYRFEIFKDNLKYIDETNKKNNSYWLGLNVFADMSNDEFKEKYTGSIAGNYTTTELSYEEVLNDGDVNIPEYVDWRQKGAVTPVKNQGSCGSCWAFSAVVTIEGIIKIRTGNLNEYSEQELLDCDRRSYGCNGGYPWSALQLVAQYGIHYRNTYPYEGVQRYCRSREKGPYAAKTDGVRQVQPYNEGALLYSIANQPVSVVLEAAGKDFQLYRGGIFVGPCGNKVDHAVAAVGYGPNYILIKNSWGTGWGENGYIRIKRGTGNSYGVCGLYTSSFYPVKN
pIC50: −log10 of the molar value.
value_kind: pIC50

Exercise: # query: pIC50 of entry `Cc1ccc(S(=O)(=O)N(C)CC(=O)N(Cc2ccc(-c3ccc(-c4cccc(C#N)c4)cc3)cc2)c2ccc(C(=O)O)c(O)c2)cc1`
Key: < 5.00

====

experimental_target: UniProt:Q13332
Sequence (Q13332 whole entry): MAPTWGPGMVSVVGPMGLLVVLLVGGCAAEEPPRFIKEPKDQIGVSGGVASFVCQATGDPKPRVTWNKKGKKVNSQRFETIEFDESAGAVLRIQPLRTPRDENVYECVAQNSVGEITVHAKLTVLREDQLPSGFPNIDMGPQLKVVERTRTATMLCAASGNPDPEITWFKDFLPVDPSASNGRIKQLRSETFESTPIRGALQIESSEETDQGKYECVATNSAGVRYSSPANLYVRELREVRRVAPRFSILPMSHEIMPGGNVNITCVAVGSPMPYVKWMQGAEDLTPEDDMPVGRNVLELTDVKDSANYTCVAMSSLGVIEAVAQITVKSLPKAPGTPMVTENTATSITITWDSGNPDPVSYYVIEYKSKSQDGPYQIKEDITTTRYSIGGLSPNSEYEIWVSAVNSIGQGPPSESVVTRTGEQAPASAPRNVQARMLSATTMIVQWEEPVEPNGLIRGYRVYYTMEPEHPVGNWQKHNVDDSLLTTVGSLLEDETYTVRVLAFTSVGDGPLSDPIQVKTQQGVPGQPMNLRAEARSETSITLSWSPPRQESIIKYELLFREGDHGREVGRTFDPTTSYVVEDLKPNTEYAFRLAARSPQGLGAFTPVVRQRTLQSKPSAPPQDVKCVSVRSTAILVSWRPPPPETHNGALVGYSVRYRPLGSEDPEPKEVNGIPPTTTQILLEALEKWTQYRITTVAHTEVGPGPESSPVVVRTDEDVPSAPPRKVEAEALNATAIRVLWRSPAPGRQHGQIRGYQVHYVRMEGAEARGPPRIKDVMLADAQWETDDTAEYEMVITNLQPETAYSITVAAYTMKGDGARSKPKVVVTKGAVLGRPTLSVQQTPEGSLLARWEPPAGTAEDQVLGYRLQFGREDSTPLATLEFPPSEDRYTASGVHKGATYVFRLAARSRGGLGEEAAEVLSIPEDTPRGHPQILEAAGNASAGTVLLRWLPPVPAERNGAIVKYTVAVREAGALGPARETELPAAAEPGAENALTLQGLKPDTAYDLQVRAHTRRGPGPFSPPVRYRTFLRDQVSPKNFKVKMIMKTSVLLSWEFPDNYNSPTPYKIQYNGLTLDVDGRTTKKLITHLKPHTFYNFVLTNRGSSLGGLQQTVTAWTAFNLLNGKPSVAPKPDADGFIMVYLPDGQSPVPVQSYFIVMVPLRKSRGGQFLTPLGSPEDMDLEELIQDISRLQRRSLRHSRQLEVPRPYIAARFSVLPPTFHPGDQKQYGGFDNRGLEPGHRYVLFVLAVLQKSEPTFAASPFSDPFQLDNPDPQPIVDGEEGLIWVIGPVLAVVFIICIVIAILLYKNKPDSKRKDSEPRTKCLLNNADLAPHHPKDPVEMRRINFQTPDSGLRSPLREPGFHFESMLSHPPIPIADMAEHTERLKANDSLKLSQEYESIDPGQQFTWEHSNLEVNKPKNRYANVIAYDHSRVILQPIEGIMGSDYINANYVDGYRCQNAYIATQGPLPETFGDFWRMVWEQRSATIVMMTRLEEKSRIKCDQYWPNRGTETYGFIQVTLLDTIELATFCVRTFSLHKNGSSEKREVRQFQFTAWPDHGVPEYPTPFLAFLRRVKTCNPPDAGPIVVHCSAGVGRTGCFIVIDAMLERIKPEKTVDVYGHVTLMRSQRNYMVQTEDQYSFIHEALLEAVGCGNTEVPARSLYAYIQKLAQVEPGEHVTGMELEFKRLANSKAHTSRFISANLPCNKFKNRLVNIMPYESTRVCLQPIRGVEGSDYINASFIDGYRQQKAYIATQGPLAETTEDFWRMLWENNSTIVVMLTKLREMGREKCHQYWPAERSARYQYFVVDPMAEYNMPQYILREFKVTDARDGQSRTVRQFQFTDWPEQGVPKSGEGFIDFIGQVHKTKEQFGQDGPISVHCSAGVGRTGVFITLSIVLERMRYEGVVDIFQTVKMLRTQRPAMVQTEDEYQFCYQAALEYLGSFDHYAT
value_kind: IC50 (µM)
# value in µM; strip the unit string

Exercise: Request body: readout IC50, system UniProt:Q13332, query `CN(CC(=O)N(Cc1ccc(C2CCCCC2)cc1)c1ccc(C(=O)O)c(O)c1)S(=O)(=O)c1cccc2cccnc12` . Return the value.
Key: 4.3

====

experimental_target: Tyrosine-protein phosphatase non-receptor type 2 (Homo sapiens) (UniProt P17706)
Sequence (P17706 whole entry, the tested form may be a part): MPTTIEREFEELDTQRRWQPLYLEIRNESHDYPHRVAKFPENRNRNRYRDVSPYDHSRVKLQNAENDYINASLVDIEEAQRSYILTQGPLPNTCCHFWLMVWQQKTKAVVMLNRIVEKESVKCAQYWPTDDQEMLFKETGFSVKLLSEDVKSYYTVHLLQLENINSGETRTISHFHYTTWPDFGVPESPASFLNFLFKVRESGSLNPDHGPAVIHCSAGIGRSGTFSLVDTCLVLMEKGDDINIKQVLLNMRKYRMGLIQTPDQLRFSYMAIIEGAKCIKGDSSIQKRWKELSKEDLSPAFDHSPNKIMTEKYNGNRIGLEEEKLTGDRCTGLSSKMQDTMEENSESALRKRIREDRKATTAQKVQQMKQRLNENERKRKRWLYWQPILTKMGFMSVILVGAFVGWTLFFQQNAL
method_notes: Inhibition of human GST-tagged TC-PTP catalytic domain assessed as DiFMUP hydrolysis at 10 uM by fluorometric kinetic-based assay
Readings of inhibition for the listed compounds

| chemical_string | reading |
| --- | --- |
| CN(CC(=O)N(Cc1ccc(C2CCCCC2)cc1)c1ccc(C(=O)O)c(O)c1)S(=O)(=O)c1cccc2cccnc12 | > 80% |
| CN(CC(=O)N(Cc1ccc(C2CCCCC2)cc1)c1ccc(C(=O)O)c(O)c1)S(=O)(=O)c1cccc2ccccc12 | > 80% |
| CN(C)c1cccc2c(S(=O)(=O)N(C)CC(=O)N(Cc3ccc(C4CCCCC4)cc3)c3ccc(C(=O)O)c(O)c3)cccc12 | > 80% |
| Cc1ccc(S(=O)(=O)N(C)CC(=O)N(Cc2ccc(-c3ccc(-c4cccc(C#N)c4)cc3)cc2)c2ccc(C(=O)O)c(O)c2)cc1 | > 80% |
| Cc1ccc(S(=O)(=O)N(C)CC(=O)N(Cc2ccc(-c3ccc(-c4cccc(C(N)=O)c4)cc3)cc2)c2ccc(C(=O)O)c(O)c2)cc1 | > 80% |

// below: inhibition requested for another compound
Exercise: Name the recorded inhibition for `COC(=O)c1cccc(-c2ccc(-c3ccc(CN(C(=O)CN(C)S(=O)(=O)c4ccc(C)cc4)c4ccc(C(=O)O)c(O)c4)cc3)cc2)c1` .
Key: > 80%

====

experimental_target: Tyrosine-protein phosphatase non-receptor type 2 (Homo sapiens, UniProt P17706)
method_notes: Inhibition of TC-PTP (unknown origin) expressed in Escherichia coli cells assessed as p-nitrophenyl phosphate hydrolysis by spectrophotometric analysis
value_kind: IC50 (µM)
Field: numeric (µM). Do not append units.

Exercise: For Tyrosine-protein phosphatase non-receptor type 2 (Homo sapiens, UniProt P17706), provide IC50 of `O=C(Cn1cc(-c2c(-c3ccccc3)oc3cc(O)c(C(=O)O)cc23)nn1)Nc1ccc(N2CCOCC2)cc1` please.
Key: 22

====

experimental_target: Tyrosine-protein phosphatase non-receptor type 1 (Homo sapiens, UniProt P18031)
Sequence (P18031 whole entry): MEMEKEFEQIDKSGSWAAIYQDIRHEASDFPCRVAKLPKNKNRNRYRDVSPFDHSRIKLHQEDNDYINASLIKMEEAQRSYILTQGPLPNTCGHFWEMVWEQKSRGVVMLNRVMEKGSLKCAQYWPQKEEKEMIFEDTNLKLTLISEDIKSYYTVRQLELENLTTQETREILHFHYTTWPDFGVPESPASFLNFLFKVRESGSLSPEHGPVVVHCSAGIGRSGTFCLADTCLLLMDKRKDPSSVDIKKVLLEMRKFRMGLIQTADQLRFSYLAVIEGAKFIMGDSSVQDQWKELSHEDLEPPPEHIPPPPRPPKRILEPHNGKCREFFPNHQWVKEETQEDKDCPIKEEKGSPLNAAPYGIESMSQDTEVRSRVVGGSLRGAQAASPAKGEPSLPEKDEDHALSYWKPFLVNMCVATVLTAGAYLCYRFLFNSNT
method_notes: Inhibition of human GST-tagged PTP1B catalytic domain assessed as DiFMUP hydrolysis by fluorometric kinetic-based assay
The reader will find reported pIC50 values listed item by item below.
By convention, pIC50 is the negative base-10 log of a molar concentration.

| chemical_string | reading |
| --- | --- |
| Cc1ccc(S(=O)(=O)N(C)CC(=O)N(Cc2ccc(-c3ccc(-c4cccc(C(N)=O)c4)cc3)cc2)c2ccc(C(=O)O)c(O)c2)cc1 | 5.34 |
| CN(C)c1cccc2c(S(=O)(=O)N(C)CC(=O)N(Cc3ccc(C4CCCCC4)cc3)c3ccc(C(=O)O)c(O)c3)cccc12 | 5.31 |
| CN(CC(=O)N(Cc1ccc(C2CCCCC2)cc1)c1ccc(C(=O)O)c(O)c1)S(=O)(=O)c1cccc2cccnc12 | 5.21 |
| COC(=O)c1cccc(-c2ccc(-c3ccc(CN(C(=O)CN(C)S(=O)(=O)c4ccc(C)cc4)c4ccc(C(=O)O)c(O)c4)cc3)cc2)c1 | 5.32 |
| CN(CC(=O)N(Cc1ccc(C2CCCCC2)cc1)c1ccc(C(=O)O)c(O)c1)S(=O)(=O)c1cccc2ccccc12 | 5.28 |

Turning to the following compound.
Exercise: Quick one: pIC50 of `Cc1ccc(S(=O)(=O)N(C)CC(=O)N(Cc2ccc(-c3ccc(-c4cccc(C#N)c4)cc3)cc2)c2ccc(C(=O)O)c(O)c2)cc1` ?
Key: 5.30

====

Reported IC50 values are given for each entry in this list.
experimental_target: Tyrosine-protein phosphatase non-receptor type 2 (Homo sapiens, UniProt P17706)
method_notes: Inhibition of human GST-tagged TC-PTP catalytic domain assessed as DiFMUP hydrolysis by fluorometric kinetic-based assay
Field: numeric (µM). Do not append units.

Example compounds with recorded IC50:
| chemical_string | u | IC50 |
| --- | --- | --- |
| Cc1ccc(S(=O)(=O)N(C)CC(=O)N(Cc2ccc(-c3ccc(-c4cccc(C(N)=O)c4)cc3)cc2)c2ccc(C(=O)O)c(O)c2)cc1 | µM | 4.4 |
| CN(CC(=O)N(Cc1ccc(C2CCCCC2)cc1)c1ccc(C(=O)O)c(O)c1)S(=O)(=O)c1cccc2ccccc12 | µM | 3.9 |
| CN(C)c1cccc2c(S(=O)(=O)N(C)CC(=O)N(Cc3ccc(C4CCCCC4)cc3)c3ccc(C(=O)O)c(O)c3)cccc12 | µM | 5.1 |
| COC(=O)c1cccc(-c2ccc(-c3ccc(CN(C(=O)CN(C)S(=O)(=O)c4ccc(C)cc4)c4ccc(C(=O)O)c(O)c4)cc3)cc2)c1 | µM | 5.6 |
| CN(CC(=O)N(Cc1ccc(C2CCCCC2)cc1)c1ccc(C(=O)O)c(O)c1)S(=O)(=O)c1cccc2cccnc12 | µM | 4.8 |

Could you now look at the following compound, please?
Exercise: For the record `Cc1ccc(S(=O)(=O)N(C)CC(=O)N(Cc2ccc(-c3ccc(-c4cccc(C#N)c4)cc3)cc2)c2ccc(C(=O)O)c(O)c2)cc1` , what value of IC50 is listed for Tyrosine-protein phosphatase non-receptor type 2 (Homo sapiens, UniProt P17706)?
Key: 5.1
